Reference source for all entries: paper PMC7076352

molecular target: CYP1A2 (Rattus norvegicus, UniProt P04799); assay: In vitro cocktail CYP450 activity assay in rat liver microsomes, CYP1A2 (phenacetin probe); details: IC50 CYP1A2, single components; RLM 0.2 mg/mL, 15 min, triplicate, mean ± SD
Sequence (P04799 whole entry): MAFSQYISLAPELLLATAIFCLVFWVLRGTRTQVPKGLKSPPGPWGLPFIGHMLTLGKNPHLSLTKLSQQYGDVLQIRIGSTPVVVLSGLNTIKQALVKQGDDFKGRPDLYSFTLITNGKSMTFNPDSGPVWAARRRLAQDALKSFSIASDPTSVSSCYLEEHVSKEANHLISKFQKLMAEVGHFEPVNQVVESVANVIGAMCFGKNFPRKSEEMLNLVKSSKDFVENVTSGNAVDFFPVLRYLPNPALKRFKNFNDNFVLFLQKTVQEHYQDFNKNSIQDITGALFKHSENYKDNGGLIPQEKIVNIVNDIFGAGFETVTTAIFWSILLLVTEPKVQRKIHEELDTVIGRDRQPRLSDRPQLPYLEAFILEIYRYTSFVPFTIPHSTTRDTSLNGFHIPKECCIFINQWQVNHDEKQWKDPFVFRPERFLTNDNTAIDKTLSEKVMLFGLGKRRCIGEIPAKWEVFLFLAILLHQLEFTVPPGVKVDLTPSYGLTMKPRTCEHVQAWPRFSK
Please respond with reported log10 of IC50 for every item in the list.
Please keep in mind that the values are log10 of IC50 expressed in µM.

Known results for compounds:
>>> observed_value("CC(C)=CCC[C@](C)(O[C@@H]1O[C@H](CO)[C@@H](O)[C@H](O)[C@H]1O)[C@H]1CC[C@]2(C)[C@@H]1[C@H](O)C[C@@H]1[C@@]3(C)CC[C@H](O)C(C)(C)[C@@H]3[C@@H](O[C@@H]3O[C@H](CO)[C@@H](O)[C@H](O)[C@H]3O)C[C@]12C [GRg1, ginsenoside Rg1]")
1.12
>>> observed_value("CC(C)=CCC[C@](C)(O[C@@H]1O[C@H](CO)[C@@H](O)[C@H](O)[C@H]1O)[C@H]1CC[C@]2(C)[C@@H]1[C@H](O)C[C@@H]1[C@@]3(C)CC[C@H](O)C(C)(C)[C@@H]3[C@@H](O[C@@H]3O[C@H](CO)[C@@H](O)[C@H](O)[C@H]3O[C@@H]3OC[C@@H](O)[C@H](O)[C@H]3O)C[C@]12C [NGR1, notoginsenoside R1]")
2.05
>>> observed_value("CC(C)=CCC[C@](C)(O[C@@H]1O[C@H](CO)[C@@H](O)[C@H](O)[C@H]1O)[C@H]1CC[C@]2(C)[C@@H]1[C@H](O)C[C@@H]1[C@@]3(C)CC[C@H](O)C(C)(C)[C@@H]3[C@@H](O[C@@H]3O[C@H](CO)[C@@H](O)[C@H](O)[C@H]3O[C@@H]3O[C@@H](C)[C@H](O)[C@@H](O)[C@H]3O)C[C@]12C [GRe, ginsenoside Re]")
1.97
>>> observed_value("CC(C)=CCC[C@](C)(O[C@@H]1O[C@H](CO[C@@H]2O[C@H](CO)[C@@H](O)[C@H](O)[C@H]2O)[C@@H](O)[C@H](O)[C@H]1O)[C@H]1CC[C@]2(C)[C@@H]1[C@H](O)C[C@@H]1[C@@]3(C)CC[C@H](O[C@@H]4O[C@H](CO)[C@@H](O)[C@H](O)[C@H]4O[C@@H]4O[C@H](CO)[C@@H](O)[C@H](O)[C@H]4O)C(C)(C)[C@@H]3CC[C@]12C [GRb1, ginsenoside Rb1]")
0.77

Provide log10 of IC50 values for the following items, in order.
1. O=c1c(O)c(-c2ccc(O)cc2)oc2cc(O)cc(O)c12 [A17, kaempferol]
2. CC(C)=CCC[C@](C)(O[C@@H]1O[C@H](CO)[C@@H](O)[C@H](O)[C@H]1O)[C@H]1CC[C@]2(C)[C@@H]1[C@H](O)C[C@@H]1[C@@]3(C)CC[C@H](O[C@@H]4O[C@H](CO)[C@@H](O)[C@H](O)[C@H]4O[C@@H]4O[C@H](CO)[C@@H](O)[C@H](O)[C@H]4O)C(C)(C)[C@@H]3CC[C@]12C [GRd, ginsenoside Rd]

OUT:
1. 1.33
2. 0.64

---

Tested on: CYP2B6
Experiment: in vitro
Conditions: microsomes
Description: (OHBUP-[D6]) and 5 nM 4′-hydroxydiclofenac-[^13C6] (OHDIC-[^13C6]) as internal standards (ISs). […] standard addition experiments. Each group included four concentration levels. For the PK […] The probe compounds, viz. […] chosen after incubating all the recruited substrates. In order to assure the linear relationship […] The incubation system was also optimized in terms of substrate concentrations. The substrates concentrations of […]
assay.metric: IC50

Consider the worked cases shown below.
>>> observed_value("O=c1c(O[C@@H]2O[C@H](CO)[C@@H](O)[C@H](O)[C@H]2O[C@@H]2O[C@H](CO)[C@@H](O)[C@H](O)[C@H]2O)c(-c2ccc(O)cc2)oc2cc(O)cc(O)c12 [A14, kaempferol-3-O-sophoroside]")
"> 200 µM"
>>> observed_value("O=c1c(OC2O[C@H](CO)[C@@H](O)[C@H](O)[C@H]2O)c(-c2ccc(O)cc2)oc2cc(OC3O[C@H](CO)[C@@H](O)[C@H](O)[C@H]3O)c(OC3O[C@H](CO)[C@@H](O)[C@H](O)[C@H]3O)c(O)c12 (stereo partly shown)")
"> 200 µM"
>>> observed_value("S=P(N1CC1)(N1CC1)N1CC1 [TRI, triethylenethiophosphoramide, reference compound]")
"0.75 µM"

IN: Give its IC50 value. Item: O=C(/C=C/c1ccc(O)cc1)C1=C(O)C2=C(O[C@H]([C@@H](O)[C@H](O)[C@H](O)CO)[C@H]2C2=C(O)/C(=C(O)/C=C/c3ccc(O)cc3)C(=O)C(O)([C@@H]3O[C@H](CO)[C@@H](O)[C@H](O)[C@H]3O)C2=O)C(O)([C@@H]2O[C@H](CO)[C@@H](O)[C@H](O)[C@H]2O)C1=O (stereo partly shown) [A8, anhydroxysafflor yellow B]
OUT: > 200 µM

---

assay: in vivo; design: species or system Sprague-Dawley (SD) rats; conditions: Sprague-Dawley, rat, plasma, po, 60 mg·kg^−1
assay.metric: concentration at 8 h

Field: example entries. Status: answers known.
>>> observed_value("CC(C)=CCC[C@](C)(O[C@@H]1O[C@H](CO[C@@H]2O[C@H](CO)[C@@H](O)[C@H](O)[C@H]2O)[C@@H](O)[C@H](O)[C@H]1O)[C@H]1CC[C@]2(C)[C@@H]1[C@H](O)C[C@@H]1[C@@]3(C)CC[C@H](O[C@@H]4O[C@H](CO)[C@@H](O)[C@H](O)[C@H]4O[C@@H]4O[C@H](CO)[C@@H](O)[C@H](O)[C@H]4O)C(C)(C)[C@@H]3CC[C@]12C [GRb1, ginsenoside Rb1]")
"75.7 ng/mL"
>>> observed_value("CC(C)=CCC[C@](C)(O[C@@H]1O[C@H](CO)[C@@H](O)[C@H](O)[C@H]1O)[C@H]1CC[C@]2(C)[C@@H]1[C@H](O)C[C@@H]1[C@@]3(C)CC[C@H](O)C(C)(C)[C@@H]3[C@@H](O[C@@H]3O[C@H](CO)[C@@H](O)[C@H](O)[C@H]3O[C@@H]3OC[C@@H](O)[C@H](O)[C@H]3O)C[C@]12C [NGR1, notoginsenoside R1]")
"0.35 ng/mL"
>>> observed_value("CC(C)=CCC[C@](C)(O[C@@H]1O[C@H](CO)[C@@H](O)[C@H](O)[C@H]1O)[C@H]1CC[C@]2(C)[C@@H]1[C@H](O)C[C@@H]1[C@@]3(C)CC[C@H](O)C(C)(C)[C@@H]3[C@@H](O[C@@H]3O[C@H](CO)[C@@H](O)[C@H](O)[C@H]3O)C[C@]12C [GRg1, ginsenoside Rg1]")
"0.63 ng/mL"

Kindly consider the entry below.
IN: Given the compound CC(C)=CCC[C@](C)(O[C@@H]1O[C@H](CO)[C@@H](O)[C@H](O)[C@H]1O)[C@H]1CC[C@]2(C)[C@@H]1[C@H](O)C[C@@H]1[C@@]3(C)CC[C@H](O[C@@H]4O[C@H](CO)[C@@H](O)[C@H](O)[C@H]4O[C@@H]4O[C@H](CO)[C@@H](O)[C@H](O)[C@H]4O)C(C)(C)[C@@H]3CC[C@]12C [GRd, ginsenoside Rd] , what is its reported concentration at 8 h?
OUT: 16.7 ng/mL

---

For each of the molecules below, state its concentration at 1 h.
test: in vivo; design: species or system Sprague-Dawley (SD) rats; details: Sprague-Dawley, plasma; 1 h after oral CNP, rat
Give bare numbers, in ng/mL.

>>> observed_value("CC(C)=CCC[C@](C)(O[C@@H]1O[C@H](CO)[C@@H](O)[C@H](O)[C@H]1O)[C@H]1CC[C@]2(C)[C@@H]1[C@H](O)C[C@@H]1[C@@]3(C)CC[C@H](O[C@@H]4O[C@H](CO)[C@@H](O)[C@H](O)[C@H]4O[C@@H]4O[C@H](CO)[C@@H](O)[C@H](O)[C@H]4O)C(C)(C)[C@@H]3CC[C@]12C [GRd, ginsenoside Rd]")
13.5

Query molecule follows.
IN: Would you kindly share the measured concentration at 1 h for CC(C)=CCC[C@](C)(O[C@@H]1O[C@H](CO)[C@@H](O)[C@H](O)[C@H]1O)[C@H]1CC[C@]2(C)[C@@H]1[C@H](O)C[C@@H]1[C@@]3(C)CC[C@H](O)C(C)(C)[C@@H]3[C@@H](O[C@@H]3O[C@H](CO)[C@@H](O)[C@H](O)[C@H]3O[C@@H]3O[C@@H](C)[C@H](O)[C@@H](O)[C@H]3O)C[C@]12C [GRe, ginsenoside Re] ?
OUT: 0.24
